The measurements presented in this section are drawn from PubChem BioAssay AID1159580.

- Assay remarks: chemical genetic growth profiling, strain panel (AID 1159580);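 also: tested at 20 µM; growth read once vehicle control cultures reached saturation at 30 °C; 1 = growth at the plate median or of vehicle wells; lower values mean less growth of the strain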
- Measurement setup: S. cerevisiae deletion strains, growth OD, locus YGR092W, strain DBF2, hits give low values
Among all 5,500 compounds or so, about 2,000 (36%) were called active. Another 18% or so got no clear call; they are omitted. The list shows a part of the results.
Endpoint name: normalized growth
Just the number, please, no unit attached.

As a guide, the following entries are already answered.
Param item = COc1ccc(N=C2SCC(c3ccc(C)cc3)=NN2CCO)cc1 ; retrieve measured normalized growth.
0.947

Entry to check: N/C(=N/OC(=O)Nc1cccc(C(F)(F)F)c1)c1ccc(OC(F)(F)F)cc1
0.616

New cases:
Param item = O=S(=O)(Nc1ccccc1Sc1c(Cl)cncc1Cl)c1ccc(Cl)cc1 ; retrieve measured normalized growth.
0.988

Entry to check: COc1ccc(Br)c(C(=O)/C(C#N)=C/c2cccs2)c1
0.178

Entry to check: FC(F)(F)Oc1ccc(OCc2n[nH]c(=S)n2-c2ccc(Cl)cc2)cc1
0.944

Entry to check: COc1ccccc1N1CCN(C(=O)C(C)c2ccc(CC(C)C)cc2)CC1 (stereo not drawn)
0.938

Entry to check: O=C(NC(=S)NNc1ncc(C(F)(F)F)cc1Cl)c1cccs1
0.163

Entry to check: O=C1OC(c2ccccc2)=C/C1=C/c1ccccc1
0.855
